Record form. Attribute: inhibition. Fill in for each entry.
target: Ephrin type-A receptor 2 (Homo sapiens); conditions: at 1 µM;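 also: value is the mean inhibition of EPHA2, measured in the GSK PKIS screen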
Report the value in % with no unit label.

Exam item: Please indicate inhibition recorded for Fc1ccc(-c2ncn(CCCN3CCOCC3)c2-c2ccncc2)cc1
Marked response: 1.3

Exam item: Please indicate inhibition recorded for COc1cc2ncn(-c3cc(OCc4ccccc4C(F)(F)F)c(C(C)=O)s3)c2cc1OC
Marked response: 2.23

Exam item: Please indicate inhibition recorded for C[C@@H](Oc1cc(-n2cnc3ccc(OCC4CCN(C)CC4)cc32)sc1C(N)=O)c1ccccc1Cl
Marked response: 1.71

Exam item: Please indicate inhibition recorded for N#Cc1ccc(Oc2nccc(-c3c(-c4ccc(F)cc4)ncn3C3CCNCC3)n2)cc1
Marked response: 0.1

Exam item: Please indicate inhibition recorded for CCc1nccc2c1nc(-c1nonc1N)n2CC
Marked response: 0.69

Exam item: Please indicate inhibition recorded for O=C(Nc1n[nH]c2cc(-c3ccccc3)ccc12)C1CC1
Marked response: 3.8

###

system: Leucine-rich repeat serine/threonine-protein kinase 2 (Homo sapiens), Q5S007 [G2019S]; conditions: at 0.1 µM
Sequence (Q5S007 whole entry G2019S): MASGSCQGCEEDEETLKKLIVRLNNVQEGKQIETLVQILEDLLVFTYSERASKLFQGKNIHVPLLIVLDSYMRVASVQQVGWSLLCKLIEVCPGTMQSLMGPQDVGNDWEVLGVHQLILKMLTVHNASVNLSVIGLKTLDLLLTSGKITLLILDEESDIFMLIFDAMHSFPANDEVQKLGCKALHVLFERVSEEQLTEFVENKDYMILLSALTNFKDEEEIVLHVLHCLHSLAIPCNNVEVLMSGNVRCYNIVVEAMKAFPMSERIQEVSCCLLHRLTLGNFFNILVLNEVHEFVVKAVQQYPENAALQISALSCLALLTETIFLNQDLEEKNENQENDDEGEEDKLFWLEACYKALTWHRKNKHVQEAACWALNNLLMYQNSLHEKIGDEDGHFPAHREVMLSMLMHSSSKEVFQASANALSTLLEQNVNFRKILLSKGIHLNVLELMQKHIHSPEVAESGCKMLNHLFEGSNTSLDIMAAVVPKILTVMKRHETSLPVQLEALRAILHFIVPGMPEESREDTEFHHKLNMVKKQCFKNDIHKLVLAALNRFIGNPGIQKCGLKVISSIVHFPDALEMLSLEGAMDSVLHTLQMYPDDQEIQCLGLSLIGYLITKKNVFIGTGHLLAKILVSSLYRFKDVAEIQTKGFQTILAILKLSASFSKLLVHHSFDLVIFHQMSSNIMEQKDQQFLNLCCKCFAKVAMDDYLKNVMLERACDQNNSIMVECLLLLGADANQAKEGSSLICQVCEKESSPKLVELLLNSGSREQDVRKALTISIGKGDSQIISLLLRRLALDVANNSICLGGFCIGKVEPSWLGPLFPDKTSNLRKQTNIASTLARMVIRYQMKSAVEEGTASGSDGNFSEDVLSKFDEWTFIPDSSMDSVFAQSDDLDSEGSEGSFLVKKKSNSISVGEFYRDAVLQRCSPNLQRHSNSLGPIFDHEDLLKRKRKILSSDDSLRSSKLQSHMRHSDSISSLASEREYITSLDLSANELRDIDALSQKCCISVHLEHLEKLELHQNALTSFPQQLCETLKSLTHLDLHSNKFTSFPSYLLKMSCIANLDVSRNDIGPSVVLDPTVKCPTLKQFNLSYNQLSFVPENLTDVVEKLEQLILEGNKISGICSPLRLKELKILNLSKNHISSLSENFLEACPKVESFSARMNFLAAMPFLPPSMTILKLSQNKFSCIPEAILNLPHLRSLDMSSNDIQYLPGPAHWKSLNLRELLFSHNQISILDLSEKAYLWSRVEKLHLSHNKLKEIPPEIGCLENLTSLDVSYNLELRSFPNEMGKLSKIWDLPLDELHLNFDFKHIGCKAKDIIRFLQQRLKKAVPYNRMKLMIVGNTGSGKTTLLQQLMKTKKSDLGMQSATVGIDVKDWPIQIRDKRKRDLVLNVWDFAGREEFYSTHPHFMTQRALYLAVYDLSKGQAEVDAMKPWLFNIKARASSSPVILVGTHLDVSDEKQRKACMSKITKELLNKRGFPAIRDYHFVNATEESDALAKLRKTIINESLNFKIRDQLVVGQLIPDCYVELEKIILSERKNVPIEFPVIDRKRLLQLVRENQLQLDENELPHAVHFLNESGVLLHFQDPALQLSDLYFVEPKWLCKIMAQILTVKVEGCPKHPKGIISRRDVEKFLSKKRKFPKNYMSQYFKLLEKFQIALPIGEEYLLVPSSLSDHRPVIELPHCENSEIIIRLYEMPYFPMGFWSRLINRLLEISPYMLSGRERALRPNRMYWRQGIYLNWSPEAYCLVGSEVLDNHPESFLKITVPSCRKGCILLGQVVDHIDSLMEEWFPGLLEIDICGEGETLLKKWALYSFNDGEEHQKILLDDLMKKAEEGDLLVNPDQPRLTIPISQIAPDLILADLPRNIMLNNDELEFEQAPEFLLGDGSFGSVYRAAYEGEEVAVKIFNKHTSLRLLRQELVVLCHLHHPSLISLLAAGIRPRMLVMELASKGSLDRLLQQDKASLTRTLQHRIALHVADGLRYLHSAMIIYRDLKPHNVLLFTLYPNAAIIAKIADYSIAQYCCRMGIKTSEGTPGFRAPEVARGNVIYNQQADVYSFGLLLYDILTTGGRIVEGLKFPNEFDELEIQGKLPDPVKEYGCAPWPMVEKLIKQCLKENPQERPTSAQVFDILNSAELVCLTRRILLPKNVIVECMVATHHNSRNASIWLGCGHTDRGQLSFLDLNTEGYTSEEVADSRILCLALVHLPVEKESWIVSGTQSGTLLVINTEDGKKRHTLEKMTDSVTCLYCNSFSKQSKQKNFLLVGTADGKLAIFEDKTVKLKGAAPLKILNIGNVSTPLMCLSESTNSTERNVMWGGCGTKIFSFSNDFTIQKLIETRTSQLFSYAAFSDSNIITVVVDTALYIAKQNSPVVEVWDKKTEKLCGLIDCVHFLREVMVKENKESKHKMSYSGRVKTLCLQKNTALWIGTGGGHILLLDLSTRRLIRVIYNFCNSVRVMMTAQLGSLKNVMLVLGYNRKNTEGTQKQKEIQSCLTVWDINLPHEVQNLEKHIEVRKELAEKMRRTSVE
reportedMetric: inhibition (%)
Report the value in % with no unit label.

Exam item: Please indicate inhibition recorded for COc1cc2ncn(-c3cc(OCCc4ccccc4)c(C(N)=O)s3)c2cc1OC
Marked response: 6.42

Exam item: Please indicate inhibition recorded for NC(=O)Cc1ccccc1Oc1nccc(-c2c(-c3ccc(F)cc3)ncn2C2CCNCC2)n1
Marked response: 6.11

Exam item: Please indicate inhibition recorded for CS(=O)(=O)CCNCc1ccc(-c2ccc3ncnc(Nc4ccc(OCc5ccccc5)c(Br)c4)c3c2)o1
Marked response: -1.19

Exam item: Please indicate inhibition recorded for COc1cc(Nc2ncc3c(C)nc(-c4cccc(C(F)(F)F)c4)n3n2)cc(OC)c1OC
Marked response: 11.1

Exam item: Please indicate inhibition recorded for CN1CCN(CCCNc2nc3ccc(Oc4ccc(NC(=O)Nc5cc(C(F)(F)F)ccc5F)cc4)cc3[nH]2)CC1
Marked response: 0.21

Exam item: Please indicate inhibition recorded for CCS(=O)(=O)c1ccc(OC)c(Nc2ncc(-c3cccc(-c4ccccc4F)c3)o2)c1
Marked response: 4.86

Exam item: Please indicate inhibition recorded for Fc1ccc(-c2nc3n(c2-c2ccncc2)CCS3)cc1
Marked response: -0.21

Exam item: Please indicate inhibition recorded for Fc1ccc(-c2c(-c3ccncc3)nc3n2CCS3)cc1
Marked response: -1.05

Exam item: Please indicate inhibition recorded for Cc1ccc(NC(=O)c2ccoc2)cc1-c1ccc(C(=O)NCC2CC2)cc1
Marked response: 2.32

Exam item: Please indicate inhibition recorded for C/C(Nc1ccc(S(N)(=O)=O)cc1)=C1/C(=O)Nc2ccccc21
Marked response: 11.4

###

Target: Inhibitor of nuclear factor kappa-B kinase subunit epsilon (Homo sapiens) (UniProt Q14164);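 also: reported values are averaged percent inhibition figures against human IKKε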
Sequence (whole entry): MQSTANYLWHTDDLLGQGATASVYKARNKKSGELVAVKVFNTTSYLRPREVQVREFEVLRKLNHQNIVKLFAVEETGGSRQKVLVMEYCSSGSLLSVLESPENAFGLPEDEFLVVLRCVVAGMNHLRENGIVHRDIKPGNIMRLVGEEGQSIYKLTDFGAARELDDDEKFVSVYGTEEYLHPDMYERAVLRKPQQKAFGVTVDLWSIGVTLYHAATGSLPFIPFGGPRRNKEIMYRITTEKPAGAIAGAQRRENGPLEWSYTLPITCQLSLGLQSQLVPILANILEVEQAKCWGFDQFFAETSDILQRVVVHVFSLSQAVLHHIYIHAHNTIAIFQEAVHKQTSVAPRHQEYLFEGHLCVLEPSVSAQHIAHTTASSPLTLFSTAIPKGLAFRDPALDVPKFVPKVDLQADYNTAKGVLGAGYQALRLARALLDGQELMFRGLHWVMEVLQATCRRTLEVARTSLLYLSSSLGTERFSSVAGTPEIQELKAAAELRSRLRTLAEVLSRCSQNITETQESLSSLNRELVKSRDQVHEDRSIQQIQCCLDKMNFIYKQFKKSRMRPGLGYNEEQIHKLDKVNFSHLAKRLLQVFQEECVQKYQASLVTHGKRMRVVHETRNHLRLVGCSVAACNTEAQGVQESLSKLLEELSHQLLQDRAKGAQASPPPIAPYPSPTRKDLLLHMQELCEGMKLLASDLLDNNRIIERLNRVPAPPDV
Details: at 1 µM
reportedMetric: inhibition (%)
Report the value in % with no unit label.

Exam item: Please indicate inhibition recorded for CN(C)CCOc1ccc(-c2cc(-c3ccc4c(c3)CCC4=NO)c(-c3ccncc3)o2)cc1
Marked response: 0

Exam item: Please indicate inhibition recorded for CCc1cccc(CC)c1/C=C/c1cncc(C(=O)NC)c1
Marked response: 3.78

Exam item: Please indicate inhibition recorded for CS(=O)(=O)CCNCc1cc(-c2cc3c(Nc4ccc(OCc5cccc(F)c5)c(Cl)c4)ncnc3s2)cs1
Marked response: 4.64

Exam item: Please indicate inhibition recorded for COc1cc2ncn(-c3cc(OCc4cccs4)c(C(N)=O)s3)c2cc1OC
Marked response: 7.71

Exam item: Please indicate inhibition recorded for CCS(=O)(=O)c1ccc(OC)c(Nc2ncc(-c3ccccc3Cl)o2)c1
Marked response: 2.16

Exam item: Please indicate inhibition recorded for NC(=O)Cc1ccccc1Oc1nccc(-c2c(-c3ccc(F)cc3)ncn2C2CCNCC2)n1
Marked response: 0.67

Exam item: Please indicate inhibition recorded for Fc1ccc(-c2ncn(C3CCNCC3)c2-c2ccnc(Oc3ccc(F)c(F)c3)n2)cc1
Marked response: 4.67

Exam item: Please indicate inhibition recorded for CCc1ccc(Oc2nccc(-c3c(-c4ccc(F)cc4)ncn3C3CCNCC3)n2)cc1
Marked response: 6.86

Exam item: Please indicate inhibition recorded for Cc1ccc(NC(=O)c2ccoc2)cc1-c1ccc(C(=O)NCC2CC2)cc1
Marked response: 2.47

Exam item: Please indicate inhibition recorded for CN(c1ccc(NC(=O)Nc2c(Cl)cccc2Cl)cc1)c1ccnc(Nc2cccc(CS(C)(=O)=O)c2)n1
Marked response: 8.6

Exam item: Please indicate inhibition recorded for Nc1nccc(-c2c(-c3ccc(F)cc3)ncn2C2CCC(O)CC2)n1 (stereo not given)
Marked response: -2.64

Exam item: Please indicate inhibition recorded for COc1cc(Nc2ncc3c(C)nc(-c4cccc(Oc5ccccc5)c4)n3n2)cc(OC)c1OC
Marked response: 21.3

Exam item: Please indicate inhibition recorded for CCS(=O)(=O)c1ccc(OC)c(Nc2ncc(-c3cccc(-c4ccccc4F)c3)o2)c1
Marked response: 0.08

Exam item: Please indicate inhibition recorded for CN(C)c1ccc2c(c1)/C(=C/Nc1ccc(S(N)(=O)=O)cc1)C(=O)N2
Marked response: 23.1

Exam item: Please indicate inhibition recorded for NC(=O)c1cc(-c2ccncc2)cc(-c2ccccc2)c1N
Marked response: 14.9

Exam item: Please indicate inhibition recorded for COc1cc(N2CCN(C(C)C)CC2)ccc1Nc1nc(Nc2ccc(F)cc2C(=O)NC[C@@H](O)CO)c2cc[nH]c2n1
Marked response: 10.3

Exam item: Please indicate inhibition recorded for COc1cccc(-n2cnc3c(N/N=C/c4ccncc4)ncnc32)c1
Marked response: 4.51

Exam item: Please indicate inhibition recorded for O=C(Nc1n[nH]c2nc(-c3ccc(O)cc3)c(Br)cc12)C1CC1
Marked response: 12.2

Exam item: Please indicate inhibition recorded for C[C@@H](Oc1cc(-n2cnc3ccc(OCC4CCN(C)CC4)cc32)sc1C(N)=O)c1ccccc1Cl
Marked response: 7.27

Exam item: Please indicate inhibition recorded for O=C1Nc2ccccc2/C1=C/Nc1ccc(-n2cncn2)cc1
Marked response: 16.4
